- MEASURED_ON: Adenosine receptor A3 (Homo sapiens, UniProt P0DMS8)
- Sequence (P0DMS8 whole entry): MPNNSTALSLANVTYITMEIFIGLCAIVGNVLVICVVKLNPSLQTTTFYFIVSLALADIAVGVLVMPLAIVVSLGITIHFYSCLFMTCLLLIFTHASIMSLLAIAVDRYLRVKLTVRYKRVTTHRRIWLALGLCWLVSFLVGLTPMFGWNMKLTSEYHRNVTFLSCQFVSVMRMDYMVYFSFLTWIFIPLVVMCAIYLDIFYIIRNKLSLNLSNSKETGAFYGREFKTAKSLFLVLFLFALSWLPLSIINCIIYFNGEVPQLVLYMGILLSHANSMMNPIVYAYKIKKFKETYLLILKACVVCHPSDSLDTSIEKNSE
- METHOD_SUMMARY: Stimulation of [35S]GTP-gamma-S, against human adenosine A3 receptor
- Format: functional
QUANTITY_KIND: EC50

As a guide, the following entries are already answered.
OC[C@@]12C[C@@H]1[C@@H](n1cnc3c(NC4CCCC4)ncnc31)[C@H](O)[C@@H]2O ... > 10 µM
OC[C@H]1C[C@@H](n2cnc3c(NCc4cccc(I)c4)ncnc32)[C@H](O)[C@@H]1O ... > 10 µM

Problem: Provide EC50 value for the following compound: "OC[C@@]12C[C@@H]1[C@@H](n1cnc3c(NC4CCCC4)nc(Cl)nc31)[C@H](O)[C@@H]2O"
Result: > 10 µM
